STUDY SYSTEM: T1, human IL-2Rγ (common cytokine receptor γ-chain) (human, UniProt P31785 23-262, limits assumed)
T1 construct: Recombinant protein coated on the plate or immobilised on a CM5 chip; also called hu IL-2R; CD132
T1 sequence: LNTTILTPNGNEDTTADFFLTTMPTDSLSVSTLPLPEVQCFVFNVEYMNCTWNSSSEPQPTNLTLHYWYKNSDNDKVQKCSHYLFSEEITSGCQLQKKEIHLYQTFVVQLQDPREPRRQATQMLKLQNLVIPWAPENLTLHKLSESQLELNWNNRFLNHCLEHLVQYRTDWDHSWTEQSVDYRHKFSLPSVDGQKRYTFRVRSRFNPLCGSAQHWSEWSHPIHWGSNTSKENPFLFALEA
METHOD SUMMARY: SPR off-rate ranking, periplasmic extract on immobilised protein
# strict inequality: koff < 0.007 s⁻¹ yields true, everything else yields false

BINDER	CLASSIFICATION
FJ1427_P035MP04E01 (VHH, VHH in periplasmic extract; also called clone nr) VHH: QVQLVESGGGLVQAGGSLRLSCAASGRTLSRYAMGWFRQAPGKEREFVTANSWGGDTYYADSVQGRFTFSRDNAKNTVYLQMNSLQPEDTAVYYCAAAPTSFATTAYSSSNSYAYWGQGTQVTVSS	true
FJ1427_P035MP04G11 (VHH, VHH in periplasmic extract; also called clone nr) VHH: QVQLVESGGGWVQVGESLRLSCAPSGRTFVSGIMGWFRQAPGEEREFVARIILNNNSTRYTDSVKGRFTISRDSAKNTMYLQMNTLRPEDTAVYYCAARDRYGSGNSLSPSAYDYWGQGTQVTVSS	false
30-MP04C03 (VHH, VHH in periplasmic extract; also called FJ1427_P035MP04C03; clone nr) VHH: EVQLVESGGGWVQDGGSLRLSCALSGRTFVRGIMGWFRQAPGKEREFVARIIWHINSTRYADSVKGRFTISRDSAKNTMYLQMDSLRPEDTAVYYCAARDRYGSGNSLSPSAYDYWGQGTQVTVSS	false
FJ1427_P035MP04B11 (VHH, VHH in periplasmic extract; also called clone nr; 370) VHH: EVQLVESGGGWVQVGESLRLSCAPSGRTFVSGIMGWFRQAPGKEREFVARIILNNNSTRYIDSVKGRFTISRDSAKNTMYLQMDSLRPEDTAVYYCAARDRYGSGNSLSPSAYDYWGQGTQVTVSS	false
FJ1427_P035MP04G04 (VHH, VHH in periplasmic extract; also called clone nr) VHH: QVQLVESGGGLVQAGGSLRLSCAASGRTLSRYAVGWFRQAPGKEREFVTANSWGGDTFYADSVQGRFTFSRDNAKNTVYLQMNSLLPEDAAVYYCAAAPTSFATTAYSSSNSYKVWGQGTQVTVSS	true
FJ1427_P035MP04E11 (VHH, VHH in periplasmic extract; also called clone nr) VHH: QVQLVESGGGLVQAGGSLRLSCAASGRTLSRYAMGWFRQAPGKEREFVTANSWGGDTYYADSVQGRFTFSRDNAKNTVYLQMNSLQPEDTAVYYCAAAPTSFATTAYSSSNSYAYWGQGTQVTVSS	true
FJ1427_P035MP04G03 (VHH, VHH in periplasmic extract; also called clone nr) VHH: EVQLVESGGGWVQVGESLRLSCAPSGRTFVSGIMGWFRQAPGKEREFVARIILNNNSTRYTDSVKGRFTISRDSAKNTMYLQMDSLRPEDTAVYYCAARDRYGSGNSLSPSAYDYWGQGTQVTVSS	false
FJ1427_P035MP04F11 (VHH, VHH in periplasmic extract; also called clone nr) VHH: QVQLVESGGGWVQVGESLRLSCAPSGRTFVSGIMGWFRQTPGKEREFVARIILNNNSTRYTDSVKGRFTISRDSAKNTLYLQMNTLRPEDTAVYYCAARDRYGSGNSLSPSAYDYWGQGTQVTVSS	false

These entries and their values trace back to patent US20240409645A1.
